Protocol text: Stability of cannabinoid compounds and Vitamin E components in Beverage 1 (AB White) by LCMSMS
Assay type: physicochemical
Condition description: AB White stored at 8° C.; 23 days
Stability of Plant-Derived Cannabinoid Compounds in AB White, 8° C. of 2 µg/mL or higher: class 1. Under 2 µg/mL: class 0.

Exercise: Does the compound CCCCCc1cc2c(c(O)c1C(=O)O)[C@@H]1C=C(C)CC[C@H]1C(C)(C)O2 [D9 THCA, delta-9-tetrahydrocannabinolic acid] have recorded Stability of Plant-Derived Cannabinoid Compounds in AB White, 8° C. that is 2 µg/mL or more?
Key: class 0

Exercise: Check CCCCCc1cc(O)c2c(c1)OC(C)(C)c1ccc(C)cc1-2 too.
Key: class 1

Exercise: Similarly, CCCCCc1cc(O)c(C/C=C(\C)CCC=C(C)C)c(O)c1 ?
Key: class 1

Exercise: Ok, now C=C(C)[C@@H]1CCC(C)=C[C@H]1c1c(O)cc(CCCCC)c(C(=O)O)c1O
Key: class 0

Exercise: And for C=C(C)[C@@H]1CCC(C)=C[C@H]1c1c(O)cc(CCC)cc1O ?
Key: class 0

Exercise: // repeat for CCCCCc1cc(O)c2c(c1)OC(C)(CCC=C(C)C)C=C2 (stereo not drawn) and report
Key: class 0
